# TESTED_ON: furin, P09958
# Sequence (P09958 whole entry): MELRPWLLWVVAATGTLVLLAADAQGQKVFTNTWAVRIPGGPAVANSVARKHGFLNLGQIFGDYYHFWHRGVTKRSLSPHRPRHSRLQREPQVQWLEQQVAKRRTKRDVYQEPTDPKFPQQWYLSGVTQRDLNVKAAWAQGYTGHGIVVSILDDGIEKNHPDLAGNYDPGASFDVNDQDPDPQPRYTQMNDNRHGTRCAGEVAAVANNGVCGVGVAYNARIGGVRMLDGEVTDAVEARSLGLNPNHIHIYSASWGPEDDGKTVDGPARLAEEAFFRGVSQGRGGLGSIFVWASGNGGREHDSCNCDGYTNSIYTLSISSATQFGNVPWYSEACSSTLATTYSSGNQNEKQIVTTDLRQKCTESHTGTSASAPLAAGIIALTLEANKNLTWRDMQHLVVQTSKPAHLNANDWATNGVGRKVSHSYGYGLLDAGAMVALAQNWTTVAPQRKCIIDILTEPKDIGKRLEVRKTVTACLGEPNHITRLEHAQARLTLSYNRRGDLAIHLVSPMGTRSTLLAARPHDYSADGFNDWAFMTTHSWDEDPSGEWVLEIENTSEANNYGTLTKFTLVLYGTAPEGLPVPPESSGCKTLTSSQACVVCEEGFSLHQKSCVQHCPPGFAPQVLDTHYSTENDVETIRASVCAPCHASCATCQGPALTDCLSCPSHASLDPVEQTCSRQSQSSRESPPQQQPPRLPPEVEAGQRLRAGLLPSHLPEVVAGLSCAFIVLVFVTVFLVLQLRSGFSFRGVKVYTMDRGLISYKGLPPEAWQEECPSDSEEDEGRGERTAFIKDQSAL
# PROTOCOL: furin cleavage Z-score vs untreated control; higher = more cleavage, active = 3.5 or more, inactive = 1 or less, 8 variable residues between constant flanks;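 note: purified furin at 1:10 enzyme:substrate in 50 mM HEPES pH 7.5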
# RECORDED_CONDITIONS: 30 min
This is one part of the list. No count for the full screen is at hand.
Entries and their furin cleavage Z-score
Give a plain numeric answer without units written out.

Here is how some sequences turned out for furin cleavage Z-score.
| POLYMER_SEQUENCE | furin cleavage Z-score |
| --- | --- |
| CAVTSPLTTSAGNASASA [HC1059] | -0.218 |
| CADCMEECSQAGNASASA [HC1820] | -0.219 |
| CARQSRAPSKAGNASASA [FS-3044] | 0.0856 |

Turning to the following sequence.
What furin cleavage Z-score value was documented for this sequence, CAYNPPLVETAGNASASA [HC1307] ?
-1.23

# credit: the supplement of paper PMC3545927
